- Test Target: T1, GABARAPL2, residues 3–116 (UniProt P60520 3-116)
- T1 construct: N-terminal cloning artefact left after TEV cleavage (vector pET39_Ub19); source: E. coli T7 Express, purified (His Trap IMAC, TEV cleavage, reverse IMAC, Superdex gel filtration); not shown: modified ubiquitin tag (Ub19), N-terminal, cleaved
- T1 sequence (P60520 other isoform, or with tags, fused parts or gaps): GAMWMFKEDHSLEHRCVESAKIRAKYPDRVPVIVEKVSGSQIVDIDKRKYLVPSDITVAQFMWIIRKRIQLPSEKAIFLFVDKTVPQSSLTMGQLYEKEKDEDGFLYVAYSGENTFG
- Assay: ITC; VP-ITC, 25 °C; UBA5 peptides (~400 µM) titrated into 20–25 µM binding partner; 25 mM HEPES pH 7.5, 100 mM NaCl; one-site model; a single profile for each interaction
- Study Conditions: both partners purified
pKd: −log10 of the molar value.

Binder	pKd
GAMGPVPDLPEGITVAYTIPK (N-terminal cloning artefact left after TEV cleavage (vector pET39_Ub19); also called isolated R2 peptide; source: E. coli T7 Express, purified (His Trap IMAC, TEV cleavage, reverse IMAC, Superdex gel filtration); not shown: modified ubiquitin tag (Ub19), N-terminal, cleaved) [UBA5 C-terminal region R2, residues 359–376]	< 4.00
